Data origin, for the record: ChEMBL document CHEMBL1201862

- System: DU-145
- runDescription: NCI tumour cell line growth inhibition, 48 h
Calls of active or inactive are those of the source. Cut-off read from the data, not from the text of the source: active = GI50 up to about 1.1 µM and inactive = higher.
Pick one: TRUE for active, FALSE for inactive

Look over these answered cases.
O=C(NC1CCCCC1NC(c1ccccc1)(c1ccccc1)c1ccccc1)C(=O)NC1CCCCC1NC(c1ccccc1)(c1ccccc1)c1ccccc1 (stereo not given); FALSE
CCOC(=O)C1CCCCN1CCc1c[nH]c2ccccc12 (stereo not given); FALSE
C=C[C@]1(C)CC[C@]2(C)C(CC[C@@]3(C)C2C[C@H](O)[C@H](O)[C@@]3(C)O)C1 (stereo not given in full); FALSE
O=c1[nH]cnc2c1sc1nc3ccccc3n12; FALSE
CC(=O)Nc1c(S(=O)(=O)c2ccccc2)c(C)c(C)n1Cc1ccccc1; FALSE

Per the records of this test, what outcome belongs to "COC(=O)[C@H](Cc1ccccc1)NC(=O)N(CCN(CCC#N)C(=O)N[C@H](C(=O)OC)C(C)C)c1ccccc1" ? FALSE

---

Here the recorded GI50 is given for each entry.
- Tested on: SW-620
- runDescription: NCI tumour cell line growth inhibition, 48 h
Calls of active or inactive are those of the source. Cut-off read from the data, not from the text of the source: active = GI50 up to about 1.1 µM and inactive = higher.

Worked set:
COc1cc(/C=C2\Cc3cc(OC)c(OC)cc3C2=O)cc(OC)c1; > 100 µM (inactive)
Cc1cc(Cl)ccc1NC(=O)C1C(=O)N(c2ccc(Cl)cc2C)C(=O)/C1=N\N (stereo unspecified); 42.4 µM (inactive)
CC1(C)C2CCC(CN)(C2)C1N (stereo unspecified); > 100 µM (inactive)
Nc1nc(=O)[nH]c2c1cnn2C1CCCCO1 (stereo unspecified); > 100 µM (inactive)
NCCC1([N+](=O)[O-])CCNCC1; > 100 µM (inactive)

--- query ---
For reference, reported GI50 for "COc1ccc(CCNC(=O)CCc2ccccc2CO)cc1OC" stands at > 100 µM (inactive)

---

- System: CAKI-1
- runDescription: NCI tumour cell line growth inhibition, 48 h
Activity calls are given as the source filed them. Cut-off read from the data, not from the text of the source: active = GI50 up to about 1.1 µM and inactive = higher.
Your reply should match one of these outcome classes. active, inactive

Record excerpt, results attached:
O=Cc1cn(CCCCCn2cc(C=O)c3ccccc32)c2ccccc12; inactive
CCC(C)CN1C(=O)NC(Cc2ccccc2)C1=O (stereo not drawn); inactive
COc1ccc(/C=C/c2cc(OC)c(OCc3ccccc3)c(OC)c2)cc1; inactive
C=CCc1oc(C)nc1CCCC; inactive
Cc1ccc(-c2c3nc(c(-c4ccc(C)cc4)c4ccc([nH]4)c(-c4ccc(OCC5COC(C)(C)O5)cc4)c4nc(c(-c5ccc(C)cc5)c5ccc2[nH]5)C=C4)C=C3)cc1 (stereo not drawn); inactive

Turning now to a further molecule:
How did this test come out for "CCC(=S)N(C)O" ? inactive

---

- Tested on: SF-295
- runDescription: NCI tumour cell line growth inhibition, 48 h
The source made the active and inactive calls. Cut-off read from the data, not from the text of the source: active = GI50 up to about 1.1 µM and inactive = higher.
Use one of these outcomes when replying: yes (1) = active, no (0) = inactive

Some solved entries appear below for comparison.
COC(=O)C1=C(C(=O)OC)C2(c3ccccc3)OC1(c1ccccc1)c1cc3ccccc3cc12; no (0)
CCO/C=C1\N=C(c2ccc(Cl)c(Cl)c2)OC1=O; no (0)
CCOP(=S)(OCC)Oc1ccc2c(c1)OC(=O)C1(Cl)C2(C)C2(Cl)C(=O)Oc3cc(OP(=S)(OCC)OCC)ccc3C12C (stereo unspecified); no (0)
CCOC(=O)CC1c2ccc(O)cc2OC(=O)C1c1ccc(N)cc1 (stereo unspecified); no (0)
Cc1ccc(Cc2nnc(S)[nH]2)cc1; no (0)

Hey, what did the test say about "N#Cc1c(-c2ccccc2)nc(-c2ccccc2)sc1=S" ? no (0)

What was the test verdict on "Cc1ccccc1/N=N/c1ccc(N/N=C2/CCCNC2=O)c(C)c1" ? no (0)

// param item: "COC1=NCc2ccccc2-c2ccccc21" ; yields the recorded call no (0)

Assay outcome for "O=S(=O)(O)c1ccc(/N=N/c2ccc(/N=N/c3c(O)c(S(=O)(=O)O)cc4cc(S(=O)(=O)O)ccc34)cc2)cc1" : what was it? no (0)

Hi, do you know how "COc1cc(Cl)c2c3c(c(C(=O)c4ccccc4)oc13)CCC2" came out in this test? no (0)

---

Reported GI50 is given for each of the following compounds.
- Tested on: OVCAR-5
- runDescription: NCI tumour cell line growth inhibition, 48 h
Active and inactive are the calls of the source. No stated cut-off is given here; in the data, active = GI50 up to about 1.1 µM and inactive = higher.

Cc1cc(Cl)ccc1NC(=O)C1C(=O)N(c2ccc(Cl)cc2C)C(=O)/C1=N\N (centres undefined); 60.5 µM (inactive)

For the compound COC(=O)C1=C(OC(=O)/C(=C/c2ccccc2)c2ccc(OC)cc2)C(C(=O)OC)[C@@]2(O)[C@@H](C(=O)OC)[C@H](C)C[C@@H]1[C@@H]2C(=O)OC (some centres undefined) , the measured GI50 on OVCAR-5 was 65.6 µM (inactive)

Note to self: GI50 of "COc1ccc2c(c1)[n+]([O-])c(C#N)c(N1CCN(c3ccc([N+](=O)[O-])cc3)CC1)[n+]2[O-]" with OVCAR-5 was 7.1 µM (inactive)

Value (GI50, OVCAR-5) for record "COc1cc([C@@H]2c3cc4c(cc3[C@@H](c3c(O)cc(O)c5c3O[C@H](c3ccc(O)c(O)c3)[C@H](OC(=O)c3cc(O)c(O)c(O)c3)C5)[C@H]3COC(=O)[C@H]23)OCO4)cc(OC)c1O" = 39.4 µM (inactive)

---

Recorded GI50 values for a group of compounds are listed next.
- System: M14
- runDescription: NCI tumour cell line growth inhibition, 48 h
Calls of active or inactive are those of the source. Rule as the data show it: active = GI50 up to about 1.1 µM and inactive = higher.

For orientation, consider the following solved cases.
CC[C@@]1(OP(=O)(O)O)C(=O)OCc2c1cc1n(c2=O)Cc2cc3ccccc3nc2-1; 0.0776 µM (active)
COc1cc(O)c(C(=O)/C=C/c2ccccc2)c(OC)c1 [FLAVOKAWAIN B]; 7.94 µM (inactive)
Cc1cc2c(cn1)C(=O)OCC2; > 100 µM (inactive)
CCOC1OC(C)(C=C(C#N)C#N)CCC1C (stereo not given); 35.5 µM (inactive)
CN(CC1NCCCC1O)C12CC3CC(CC(C3)C1)C2 (stereo not given); > 100 µM (inactive)

For reference, reported GI50 for "O=c1cnn(C/C=C/CO)c(=O)[nH]1" stands at > 100 µM (inactive)

What the record says about "CC1=C(C(=O)Nc2ccccc2)C(c2ccc(C(C)C)cc2)C(C(=O)Nc2ccccc2)=C(C)N1" : GI50 is 18.2 µM (inactive)

---

- Tested on: PC-3
- runDescription: NCI tumour cell line growth inhibition, 48 h
Calls of active or inactive are those of the source. Cut-off read from the data, not from the text of the source: active = GI50 up to about 1.1 µM and inactive = higher. Non-standard residues stand in square brackets, D forms with d. Residues, ends and D or L forms follow the SMILES beside them. ξ: configuration not given here. *: point of attachment. Cbz = O=C(OCc1ccccc1)*; ξK = NCCCCC(N)C(=O)O
// allowed return values: yes = active, no = inactive

Worked cases, answers included:
O=Nc1c(-c2c(O)[nH]c3ccc(I)cc23)[nH]c2ccccc12; no
CC(NC(=O)C(NC(=O)C(NC(=O)C(F)(F)F)C(C)C)C(C)C)C(=O)Oc1c(Cl)c(Cl)c(Cl)c(Cl)c1Cl (stereo not given); no
Cn1c2c(c3ccccc31)CCN=C2C1CCCOC1=O (stereo not given); no

# lookup: test call for CN(C)CCCNc1ncnc2c1ncn2C1OC(CO)C(O)C1O (stereo not given) no

# outcome recorded in this test, key = CCOC1OC(C)(C=C(C#N)C#N)CCC1C (stereo not given) no

Recorded test outcome, item "COc1ccc(SCc2cc(OCc3ccccc3)c(OCc3ccccc3)c(OCc3ccccc3)c2)cc1" no

Dear all, I need the recorded test outcome for NCCCCC(NC(=O)OCc1ccccc1)C(=O)NCC(N)=O (stereo not given) (Cbz-[ξK]-Gly-NH2) , thank you. no

So what was the verdict on CCC1(OC(=O)CN2CCN(CCO)CC2)C(=O)OCc2c1cc1n(c2=O)Cc2cc3ccccc3nc2-1 (stereo not given) in this test? yes

Status in this test for "O=[N+]([O-])c1cc(Cl)c(Cl)cc1[N+](=O)[O-]" ? no

// param item: "COc1cc(-c2oc3c(OC)c(O)c(OC)c(O)c3c(=O)c2OC)cc(O)c1OC" ; yields the recorded call no

Record request — test call for "COc1cc([C@@H]2c3cc4c(cc3[C@@H](c3c(O)cc(O)c5c3O[C@H](c3ccc(O)c(O)c3)[C@H](OC(=O)c3cc(O)c(O)c(O)c3)C5)[C@H]3COC(=O)[C@H]23)OCO4)cc(OC)c1O" no

Record request — test call for "Cc1cc(-c2nc3c(O)cccc3s2)ccc1N" no

Which result was noted for this compound in the test: "Nc1ncnc2c1ncn2[C@@H]1O[C@H](COC(c2ccccc2)(c2ccccc2)c2ccccc2)[C@@H](OC(=S)Oc2ccccc2)[C@@H]1F" no

Answer briefly: the call reported for "CC(=O)Oc1cc2c(n(C)c1=O)-c1ccccc1C2" in this assay. no

Hi, sorry to bother you, what did the test record for CC(C)(C)OC(=O)n1cc(C2CNC(=O)C23CCC(=O)N3Cc2ccccc2)c2ccccc21 (stereo not given) ? no

Kindly provide the recorded test outcome for the following compound: "Nc1nncc2[nH]cnc12" no
